Test system: BDF1 mice, P388 leukemia ip, median survival T/C
Test: NCI In Vivo Anticancer Drug Screen. Data for tumor model P388 Leukemia (intraperitoneal) in B6D2F1 (BDF1) mice
Conditions: endpoint: median survival time; dose: 100.0 mg/kg/injection; schedule: Q01DX009 (ip); vehicle: saline with Tween-80; higher = longer survival
Toxic doses and inconclusive results are not listed.
parameter: T/C

> print(dat)
                             smi  reported.measurement
1  Cc1ccc(C(=O)/C=C\c2ccccc2)cc1      104 % of control
2    c1coc(CNc2ncnc3nc[nH]c23)c1       95 % of control

Consider the record given below.
The measured T/C associated with `FC(F)(F)c1nc2nc(Br)c(Br)nc2[nH]1` reads 100 % of control

* * *

System: BDF1 mice, P388 leukemia ip, median survival T/C
Assay: NCI In Vivo Anticancer Drug Screen. Data for tumor model P388 Leukemia (intraperitoneal) in B6D2F1 (BDF1) mice
Conditions: endpoint: median survival time; dose: 200.0 mg/kg/injection; schedule: Q04DX003 (ip); vehicle: saline with Tween-80; higher = longer survival
Toxic doses and inconclusive results are not listed.
parameter: T/C

Known results for compounds:
> print(dat)
                                   compound  reported.measurement
1             CCOC(=O)C(CC(OCC)OCC)C(=O)OCC      113 % of control
2  CSc1ncc2ncn(C3OC(CO)C(O)C3O)c2n1 (stereo not drawn)       95 % of control
3  OC1c2cc(Cl)ccc2-c2c(Cl)cc(Cl)cc21 (stereo not drawn)      100 % of control
4  Nc1nc2nc(-c3ccccc3)nc(N)c2nc1Sc1ccc(Cl)cc1      103 % of control
5  O=S(=O)(F)c1ccc2nc(-c3cccc(Sc4ccccc4)c3)cc(Cl)c2c1      100 % of control

# T/C of `CCOC(=O)c1c(NC(C)=O)sc2c1CCCC2` = 100 % of control

Measured T/C, `CCOC(=O)C(Cc1ccccc1Cl)(NC(C)=O)C(=O)OCC` : 100 % of control

Form field T/C, entry `CCOC(=O)CSc1nc2nc(Cl)c(Cl)nc2[nH]1` : 97 % of control

# T/C (compound: `Nc1nc(N)c2nc(SC34CC5CC(CC(C5)C3)C4)c(N)nc2n1` ) is 88 % of control

So for `COB1OB(OC)OB(OC)O1` , the logged T/C turned out to be 100 % of control

Consider COC(=O)C1CC(O)CN1C(=O)c1c2nc3c(C(=O)N4CC(O)CC4C(=O)OC)ccc(C)c3oc-2c(C)c(=O)c1N (stereo not drawn) . Its measured T/C is 100 % of control

Just so you know, measured T/C for `Cc1ccc(NC(=O)c2ccccc2C(=O)O)c(C)c1` came out at 100 % of control

The compound `Cc1cccc(C)c1NC(=O)c1ccccc1Cl` showed T/C equal to 109 % of control

// recorded T/C for `CN(C)Nc1ncnc2nc[nH]c12` : 114 % of control

Memo: `CC(=O)c1ccc2c(c1)[nH]c1ccccc12` , reported T/C: 86 % of control

The compound listed as O=C1CC(c2ccc(Cl)cc2)NC(c2ccc(Cl)cc2)C1 (stereo not drawn) has a reported T/C of 100 % of control

# T/C (compound: `OC(Cc1nc(-c2ccccc2)c(-c2ccccc2)s1)(C(F)(F)F)C(F)(F)F` ) is 104 % of control

Record `O=S(=O)(c1ccccc1)N1CCOC1=S` , field T/C: 95 % of control

* * *

T/C for assorted compounds
Test system: BDF1 mice, P388 leukemia ip, median survival T/C
Assay: NCI In Vivo Anticancer Drug Screen. Data for tumor model P388 Leukemia (intraperitoneal) in B6D2F1 (BDF1) mice
Conditions: endpoint: median survival time; dose: 50.0 mg/kg/injection; schedule: Q01DX009 (ip); vehicle: saline; higher = longer survival
Procedure: The antitumor activity of compounds was measured in mice bearing transplantable tumors. Survival or tumor size were measured and the results are expressed as the measurement made in the treated group (T) divided by the measurement made in the vehicle treated control group (C). The tumor model used in this assay is P388 Leukemia (intraperitoneal) in B6D2F1 (BDF1) mice
Toxic doses and inconclusive results are not listed.

Reference set, count: 6
> print(dat)
                                   compound                               target.desc  parameter  reported.measurement
1  Nc1nc2c(ncn2C2OC(CO)C(O)C2N)c(=O)[nH]1 (configuration not stated)  BDF1 mice, P388 leukemia ip, median survival T/C        T/C      108 % of control
2           C[N+](C)(C)CN1C(=O)c2ccccc2C1=O  BDF1 mice, P388 leukemia ip, median survival T/C        T/C       87 % of control
3                              CS(=O)(=O)NN  BDF1 mice, P388 leukemia ip, median survival T/C        T/C       90 % of control
4                C(/C=C\c1ccccc1)=Nc1ccccc1  BDF1 mice, P388 leukemia ip, median survival T/C        T/C       95 % of control
5  CCOC(=O)C(NC(C)=O)(C(=O)OCC)C(C)C(O)c1ccc(OC)c(OC)c1O (configuration not stated)  BDF1 mice, P388 leukemia ip, median survival T/C        T/C      100 % of control
6                       c1nnc(NCNc2nncs2)s1  BDF1 mice, P388 leukemia ip, median survival T/C        T/C      100 % of control

In plain terms, `CN(C)Nc1ncnc2nc[nH]c12` has a documented T/C of 95 % of control

Documented T/C of `CCC(CC)c1ccccn1` : 104 % of control

Please fill in: T/C reported for Cn1cc(S(C)=O)c(=O)c2ccccc21 (configuration not stated) = 99 % of control

Recorded T/C (compound CCCCCCCOC(C[N+](=O)[O-])C(Cl)(Cl)Cl (configuration not stated) ): 120 % of control

What the record says about `O/N=C(\C[n+]1ccccc1)c1ccc2ccccc2c1` : T/C is 106 % of control

The measured T/C associated with `COc1ccc(NC(=O)Nc2c(Oc3ccc(Cl)cc3)ccc(Cl)c2S(=O)(=O)O)cc1Cl` reads 86 % of control

* * *

System: BDF1 mice, P388 leukemia ip, median survival T/C
Test: NCI In Vivo Anticancer Drug Screen. Data for tumor model P388 Leukemia (intraperitoneal) in B6D2F1 (BDF1) mice
Settings: endpoint: median survival time; dose: 6.25 mg/kg/injection; schedule: Q01DX009 (ip); vehicle: saline; higher = longer survival
Toxic doses and inconclusive results are not listed.
# reported T/C; entries follow

Recorded results for 5 compounds are shown here.
> print(dat)
                                   compound                               target.desc  reported.measurement
1  CCCCC(C)(CN(C)C)C(=O)/C=C/c1ccc(Cl)c(Cl)c1 (stereo unspecified)  BDF1 mice, P388 leukemia ip, median survival T/C      112 % of control
2          c1ccc2c(c1)Sc1ccccc1N2CCCN1CCCC1  BDF1 mice, P388 leukemia ip, median survival T/C      104 % of control
3    CCCCCCCC[N+]12CC[N+](CCCCCCCC)(CC1)CC2  BDF1 mice, P388 leukemia ip, median survival T/C      103 % of control
4  CCCCCCCCCCCC[N+](C)(C)CCC[N+](C)(C)CCCCCCCCCCCC  BDF1 mice, P388 leukemia ip, median survival T/C      109 % of control
5        O/N=C(\C[n+]1ccccc1)c1ccc2ccccc2c1  BDF1 mice, P388 leukemia ip, median survival T/C      120 % of control

Now examine the next entry.
Value of T/C reported for the compound `CN[C@@H]1[C@H](O)[C@H](NC)[C@H]2O[C@@]3(O)C(=O)C[C@@H](C)O[C@H]3O[C@@H]2[C@H]1O` is 95 % of control

* * *

System: BDF1 mice, P388 leukemia ip, median survival T/C
Assay: NCI In Vivo Anticancer Drug Screen. Data for tumor model P388 Leukemia (intraperitoneal) in B6D2F1 (BDF1) mice
Conditions: endpoint: median survival time; dose: 100.0 mg/kg/injection; schedule: Q01DX009 (ip); vehicle: Klucel (hydroxypropylcellulose) (HPC); higher = longer survival
Toxic doses and inconclusive results are not listed.
parameter: T/C

Worked examples follow.
> print(dat)
                                   molecule  parameter  reported.measurement
1                CN(C)/N=N/c1[nH]ncc1C(N)=O        T/C      104 % of control
2             Cc1ccc(C)c(NC(=O)c2ccccc2N)c1        T/C      100 % of control
3  CSc1ncnc2c1ncn2C1CCCO1 (stereo unspecified)        T/C      109 % of control
4                       Cc1nnc(NC(=O)CCl)s1        T/C      106 % of control
5                       COc1cccc2c1C(=O)CC2        T/C       96 % of control

GET /value?item= COc1cc2ccc(C(C)NCC#N)cc2cc1OC (stereo unspecified) &field=T/C returns 100 % of control

Sample `Nc1cccc2c1C(=O)c1cccc(NC(=O)c3ccccc3)c1C2=O` ; T/C observed: 115 % of control
